- EXPERIMENTAL TARGET: estrogen receptor alpha (Homo sapiens, UniProt P03372)
- Construct: endogenous in cells; host or cells: T47D human breast cancer cells (ATCC)
- EXPERIMENT NOTES: ERα downregulation assay in T47D breast cancer cells (ERα ELISA)
- Format: cell-based
- COND: downregulation of ERα relative to fulvestrant (100%), 1E-5 M, 24 hours, negative = upregulation
For each record, check the reported DR (%): if it is below 70% write rule met, else write rule not met.

Request: Dear colleague, could you confirm whether DR (%) of CCCN1CC(Oc2ccc(-c3c(-c4c(C)noc4C)noc3-c3ccc(O)cc3)cc2)C1.Cl falls below 70%? Thanks.
Result: rule not met

Request: Further, for CCCN1CC(Oc2ccc([C@@H]3c4ccc(O)cc4CC[C@@H]3c3ccccc3)cc2)C1.Cl ?
Result: rule met

Request: Further, for CCCN1CC(Oc2ccc(C(=O)c3c(-c4ccccc4Cl)noc3-c3ccc(O)cc3)cc2F)C1.Cl ?
Result: rule not met

Request: Further, for Cl.O=C(c1ccc(OC2CN(CC3CCOC3)C2)cc1)c1c(-c2ccc(O)cc2)sc2cc(O)ccc12 (stereo not drawn) ?
Result: rule not met

Request: Further, for CCCN1CC(Oc2ccc(C(=O)c3c(-c4ccccc4)sc4cc(O)ccc34)cc2)C1.Cl ?
Result: rule not met

Request: Further, for COCCCN1CC(Oc2ccc(C(=O)c3c(-c4ccc(O)cc4)sc4cc(O)ccc34)cc2)C1.O=C(O)C(F)(F)F ?
Result: rule met

* * *

- EXPERIMENTAL TARGET: human estrogen receptor α (hERα) (Homo sapiens, UniProt P03372)
- EXPERIMENT NOTES: antagonistic activity in CHO cells co-transfected with hERα, rat oxytocin promoter and luciferase reporter gene
- Format: cell-based
- COND: antagonism of 17β-estradiol-induced transactivation, CHO-hERα-RO-LUC; read-out: ERα pIC50 (converted)
- Experimental: The antagonistic activity of compounds on the estrogen receptors was determined in an in vitro bioassay with recombinant Chinese Hamster Ovary (CHO) cells stably co-transfected with the human estrogen receptor α (hERα), the rat oxytocin promoter (RO) and the luciferase reporter gene (LUC). […]
METRIC: log10 IC50 (log10 of the value in nM)
Short version: log10 scale, IC50, nM.

Request: Recorded log10 IC50 of CCCN1CC(Oc2ccc(C(=O)c3c(-c4ccccc4)sc4cc(O)ccc34)cc2)C1.Cl [compound 7e, hydrochloride] , please.
Result: 0.30

Request: Further, for O=C(c1ccc(OC2CN(CCCF)C2)cc1)c1c(-c2ccccc2Cl)noc1-c1ccc(O)cc1 ?
Result: 0.40

Request: Further, for Cl.Oc1ccc(-c2onc(-c3ccccc3Cl)c2-c2ccc(OC3CN(CCCF)C3)cc2)cc1 [compound 7aa, hydrochloride] ?
Result: 0.00

Request: Further, for CCCN1CC(Oc2ccc(C(=C(Cl)c3ccccc3)c3ccccc3)cc2)C1 (mixture of isomers) ?
Result: 0.90

Request: Further, for CCCN1CC(Oc2ccc(C(=O)c3c(-c4cc(F)cc(F)c4)sc4cc(O)ccc34)cc2)C1.Cl [compound 7t, hydrochloride] ?
Result: 0.30

Request: Further, for CCN1CC(Oc2ccc(C(=O)c3c(-c4ccc(O)cc4)sc4cc(O)ccc34)cc2)C1.O=C(O)C(F)(F)F [compound 7g, 2,2,2-trifluoroacetate] ?
Result: 0.60

Request: Further, for CCCN1CC(Oc2ccc(C(O)c3c(-c4ccccc4Cl)noc3-c3ccc(O)cc3)cc2)C1 (stereo not shown) ?
Result: 1.40
